conditions: in acetonitrile, 303.15 K
property: solubility (mole fraction)
Reply with just the number.

Quick one: solubility (mole fraction) of CC(S)C(=O)NCC(=O)O (stereo unspecified) ? 0.0165

----------
settings: in n-butanol, 278.15 K
property: solubility (mole fraction)
Reply with just the number.

Quick one: solubility (mole fraction) of CC(S)C(=O)NCC(=O)O (stereo unspecified) ? 0.0311

----------
settings: in acetonitrile, 273.15 K
property: solubility (mole fraction)
Reply with just the number.

Quick one: solubility (mole fraction) of CC(S)C(=O)NCC(=O)O (stereo unspecified) ? 0.00946

----------
details: in acetonitrile, 283.15 K
property: solubility (mole fraction)

Quick one: solubility (mole fraction) of CC(S)C(=O)NCC(=O)O (stereo unspecified) ? 0.0115

----------
conditions: in n-butanol, 283.15 K
property: solubility (mole fraction)
Reply with just the number.

Quick one: solubility (mole fraction) of CC(S)C(=O)NCC(=O)O (stereo unspecified) ? 0.0379

----------
conditions: in n-butanol, 308.15 K
property: solubility (mole fraction)

Quick one: solubility (mole fraction) of CC(S)C(=O)NCC(=O)O (stereo unspecified) ? 0.0811

----------
conditions: in isobutanol, 283.15 K
property: solubility (mole fraction)
Reply with just the number.

Quick one: solubility (mole fraction) of CC(S)C(=O)NCC(=O)O (stereo unspecified) ? 0.0166

----------
conditions: in isobutanol, 273.15 K
property: solubility (mole fraction)
Reply with just the number.

Quick one: solubility (mole fraction) of CC(S)C(=O)NCC(=O)O (stereo unspecified) ? 0.0119

----------
conditions: in toluene, 288.15 K
property: solubility (mole fraction)

Quick one: solubility (mole fraction) of CC(S)C(=O)NCC(=O)O (stereo unspecified) ? 0.00045

----------
conditions: in isobutanol, 313.15 K
property: solubility (mole fraction)
Reply with just the number.

Quick one: solubility (mole fraction) of CC(S)C(=O)NCC(=O)O (stereo unspecified) ? 0.0365

----------
settings: in isobutanol, 288.15 K
property: solubility (mole fraction)
Reply with just the number.

Quick one: solubility (mole fraction) of CC(S)C(=O)NCC(=O)O (stereo unspecified) ? 0.0191

----------
details: in acetonitrile, 293.15 K
property: solubility (mole fraction)
Reply with just the number.

Quick one: solubility (mole fraction) of CC(S)C(=O)NCC(=O)O (stereo unspecified) ? 0.0138

----------
conditions: in acetonitrile, 298.15 K
property: solubility (mole fraction)
Reply with just the number.

Quick one: solubility (mole fraction) of CC(S)C(=O)NCC(=O)O (stereo unspecified) ? 0.0151

----------
settings: in isobutanol, 293.15 K
property: solubility (mole fraction)

Quick one: solubility (mole fraction) of CC(S)C(=O)NCC(=O)O (stereo unspecified) ? 0.0217

----------
conditions: in acetonitrile, 308.15 K
property: solubility (mole fraction)
Reply with just the number.

Quick one: solubility (mole fraction) of CC(S)C(=O)NCC(=O)O (stereo unspecified) ? 0.018

----------
settings: in n-butanol, 303.15 K
property: solubility (mole fraction)
Reply with just the number.

Quick one: solubility (mole fraction) of CC(S)C(=O)NCC(=O)O (stereo unspecified) ? 0.0709

----------
settings: in toluene, 298.15 K
property: solubility (mole fraction)

Quick one: solubility (mole fraction) of CC(S)C(=O)NCC(=O)O (stereo unspecified) ? 0.00056

----------
conditions: in acetonitrile, 318.15 K
property: solubility (mole fraction)
Reply with just the number.

Quick one: solubility (mole fraction) of CC(S)C(=O)NCC(=O)O (stereo unspecified) ? 0.0212
